Numbers sourced from paper doi:10.1101/2024.07.24.604958.

- Target Or System: T1, CIB2 (calcium and integrin-binding protein 2), wild type (mouse, UniProt Q9Z309 1-187)
- T1 sequence: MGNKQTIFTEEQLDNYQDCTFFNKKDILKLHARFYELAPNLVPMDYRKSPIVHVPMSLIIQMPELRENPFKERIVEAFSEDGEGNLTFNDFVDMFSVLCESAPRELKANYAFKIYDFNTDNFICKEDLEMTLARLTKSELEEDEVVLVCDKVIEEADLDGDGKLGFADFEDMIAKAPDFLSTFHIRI
- Protocol Notes: ITC
pKd: −log10 of the molar value.

Binder: EELERLKALLDENRQMIATVKCKPWKMEKKIEVLKEAKKFVSENEGALGK (domain or fragment, mouse, UniProt Q8R4P5 81-130, looked up) [TMC1 cytosolic region 1 (CR1, amino acids 81-130)]
pKd: ~6.06
//
Binder: TMC1 cytosolic region 2 (CR2, amino acids 298-352) with MBP tag (domain or fragment, mouse, UniProt Q8R4P5 298-352, looked up) GGGDDNTFNFSWKVFCSWDYLIGNPETADNKFNSITMNFKEAIIEERAAQVEENI
pKd: ~4.97
//
Binder: KGQKAANLDLKKKMKQQALENKMRNKKMAAARAAAAAGGQ (domain or fragment, mouse, UniProt Q8R4P5 718-757, looked up) [TMC1 cytosolic region 3 (CR3, amino acids 718-757)]
pKd: ~4.36
